Assay: Clearance in Sprague-Dawley rat at 1 mg/kg, iv and 4 mg/kg, po
Assay type: ADME, organism-based
Details: in vivo
observation-type: clearance (mL/min/kg)
Numbers only, in mL/min/kg.

query: Please give the measured clearance for this compound: CC(=O)NC(C)(C)[C@@H]1CC2(CCN(C(=O)[C@@H]3CN(C(C)(C)C)C[C@H]3c3ccc(F)cc3F)CC2)c2cc(Cl)c(C)cc21
result: 12

----------
Molecular target: Melanocyte-stimulating hormone receptor (Homo sapiens, UniProt Q01726)
Sequence (Q01726 whole entry): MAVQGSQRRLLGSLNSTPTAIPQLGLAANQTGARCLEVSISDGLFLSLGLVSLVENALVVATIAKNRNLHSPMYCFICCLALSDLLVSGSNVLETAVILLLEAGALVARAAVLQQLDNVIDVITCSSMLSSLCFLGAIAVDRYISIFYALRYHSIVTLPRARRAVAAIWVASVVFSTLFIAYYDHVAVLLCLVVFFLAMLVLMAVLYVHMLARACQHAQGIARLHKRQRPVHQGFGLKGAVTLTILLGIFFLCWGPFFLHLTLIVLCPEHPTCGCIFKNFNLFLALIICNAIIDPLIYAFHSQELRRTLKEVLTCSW
Test: Agonist activity at human MC1R expressed in CHO cells assessed as stimulation of intracellular cAMP accumulation
observation-type: EC50 (nM)
Numbers only, in nM.

// input: 2 molecules below; output: EC50 for each
1. CC(=O)NC(C)(C)[C@H]1CC2(CCN(C(=O)[C@@H]3CN(C(C)(C)C)C[C@H]3c3ccc(F)cc3F)CC2)c2cc(Cl)c(C)cc21
2. CC(=O)NC(C)(C)[C@H]1CC2(CCN(C(=O)[C@H]3CN(C(C)(C)C)C[C@@H]3c3ccc(F)cc3F)CC2)c2cc(Cl)c(C)cc21

result:
1: 228; 2: 620

query: EC50 lookup needed for CC(=O)NC(C)(C)[C@@H]1CC2(CCN(C(=O)[C@@H]3CN(C(C)(C)C)C[C@H]3c3ccc(F)cc3F)CC2)c2cc(Cl)c(C)cc21 , thanks.
result: 1020

From: ChEMBL document CHEMBL1156330
